assay: physchem; format: physicochemical; conditions: water
Residues, ends and D or L forms follow the SMILES beside them. *: point of attachment. Palmitoyl = CCCCCCCCCCCCCCCC(=O)*
ASSAY ENDPOINT: solubility

1) CCCCCCCCCCCCCCCC(=O)N[C@@H](CCCCN)C(=O)N[C@@H](CCC(N)=O)C(=O)N[C@H](C(=O)N[C@@H](CCC(=O)O)C(=O)N[C@H](C(=O)N[C@@H](CCCCN)C(=O)N[C@@H](CCCCN)C(=O)N[C@@H](Cc1ccccc1)C(=O)N[C@@H](CCCCN)C(=O)O)[C@@H](C)CC)[C@@H](C)CC [Palm-Gap19] (Palmitoyl-KQIEIKKFK-OH) | ≥ 100 µM

Hey, just so you know, these numbers are from paper PMC11740094.
